- System: tubulin and microtubule-associated proteins (Tb+MAP)
- MEASUREMENT NOTES: GTP-dependent Tb+MAP polymerization
- Format: biochemical, mouse
- RECORDED CONDITIONS: 100 µM compound; 0.1 mM GTP, 37 °C
QUANTITY: Rate of Tb+MAP Polymerization (dA355/dt) (%)
Field: numeric (%). Do not append units.

Q: What is its Rate of Tb+MAP Polymerization (dA355/dt) for tubulin and microtubule-associated proteins (Tb+MAP)? Entry: Cc1ccc2c(c1)c1c(n2CCNC23CC4CC(CC(C4)C2)C3)CCN(C)C1.Cl.Cl [Compound 4e]
Ans: 239

More entries:
Q: Write down the reported Rate of Tb+MAP Polymerization (dA355/dt) of Cc1ccc2c(c1)c1c(n2CC(=O)NC23CC4CC(CC(C4)C2)C3)CCN(C)C1.Cl [Compound 8e] , test system: tubulin and microtubule-associated proteins (Tb+MAP).
Ans: 133

Q: What would you report for CN1CCc2c(c3ccccc3n2CC(=O)NC23CC4CC(C)(CC(C)(C4)C2)C3)C1 [Compound 8a] ?
Ans: 237

Q: Also check CN1CCc2c(c3cc(F)ccc3n2CCNC23CC4CC(C)(CC(C)(C4)C2)C3)C1.Cl.Cl [Compound 4c]
Ans: 166

###

- SYSTEM UNDER TEST: equine serum BChE (Equus caballus)
- Construct: equine serum BChE
- Sequence (P81908 whole entry): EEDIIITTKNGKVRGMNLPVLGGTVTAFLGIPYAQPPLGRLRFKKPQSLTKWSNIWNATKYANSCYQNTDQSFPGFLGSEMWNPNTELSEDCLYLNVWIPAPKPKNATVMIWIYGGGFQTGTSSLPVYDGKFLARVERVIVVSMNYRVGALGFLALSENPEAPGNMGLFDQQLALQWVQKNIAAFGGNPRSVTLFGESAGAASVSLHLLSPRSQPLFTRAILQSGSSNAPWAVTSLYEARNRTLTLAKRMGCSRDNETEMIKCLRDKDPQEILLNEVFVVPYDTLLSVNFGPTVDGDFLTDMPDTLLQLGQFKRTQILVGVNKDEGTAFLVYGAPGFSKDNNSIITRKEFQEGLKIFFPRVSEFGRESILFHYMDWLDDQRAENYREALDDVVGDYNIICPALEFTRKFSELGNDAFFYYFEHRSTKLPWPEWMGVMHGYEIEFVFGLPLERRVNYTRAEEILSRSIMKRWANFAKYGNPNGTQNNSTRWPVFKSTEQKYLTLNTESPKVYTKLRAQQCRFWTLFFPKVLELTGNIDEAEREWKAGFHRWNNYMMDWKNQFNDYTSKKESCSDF
- MEASUREMENT NOTES: Kinetic study of BChE inhibition (Lineweaver-Burk)
- RECORDED CONDITIONS: Lineweaver-Burk analysis; read-out: Ki (competitive component), BChE
QUANTITY: pKi
Scale for pKi: -log10 of concentration given in mol/L; no unit attached.

Q: Give pKi (equine serum BChE (Equus caballus)) of the following compound: `CN1CCc2c(c3cc(F)ccc3n2CCNC23CC4CC(C)(CC(C)(C4)C2)C3)C1.Cl.Cl`
Ans: 6.64

###

- SYSTEM UNDER TEST: ifenprodil-binding site of NMDA receptor (NR2B subunit) (Rattus norvegicus, UniProt P35439+Q00960)
- Sequence (Q00960 27-1482, other chains not shown): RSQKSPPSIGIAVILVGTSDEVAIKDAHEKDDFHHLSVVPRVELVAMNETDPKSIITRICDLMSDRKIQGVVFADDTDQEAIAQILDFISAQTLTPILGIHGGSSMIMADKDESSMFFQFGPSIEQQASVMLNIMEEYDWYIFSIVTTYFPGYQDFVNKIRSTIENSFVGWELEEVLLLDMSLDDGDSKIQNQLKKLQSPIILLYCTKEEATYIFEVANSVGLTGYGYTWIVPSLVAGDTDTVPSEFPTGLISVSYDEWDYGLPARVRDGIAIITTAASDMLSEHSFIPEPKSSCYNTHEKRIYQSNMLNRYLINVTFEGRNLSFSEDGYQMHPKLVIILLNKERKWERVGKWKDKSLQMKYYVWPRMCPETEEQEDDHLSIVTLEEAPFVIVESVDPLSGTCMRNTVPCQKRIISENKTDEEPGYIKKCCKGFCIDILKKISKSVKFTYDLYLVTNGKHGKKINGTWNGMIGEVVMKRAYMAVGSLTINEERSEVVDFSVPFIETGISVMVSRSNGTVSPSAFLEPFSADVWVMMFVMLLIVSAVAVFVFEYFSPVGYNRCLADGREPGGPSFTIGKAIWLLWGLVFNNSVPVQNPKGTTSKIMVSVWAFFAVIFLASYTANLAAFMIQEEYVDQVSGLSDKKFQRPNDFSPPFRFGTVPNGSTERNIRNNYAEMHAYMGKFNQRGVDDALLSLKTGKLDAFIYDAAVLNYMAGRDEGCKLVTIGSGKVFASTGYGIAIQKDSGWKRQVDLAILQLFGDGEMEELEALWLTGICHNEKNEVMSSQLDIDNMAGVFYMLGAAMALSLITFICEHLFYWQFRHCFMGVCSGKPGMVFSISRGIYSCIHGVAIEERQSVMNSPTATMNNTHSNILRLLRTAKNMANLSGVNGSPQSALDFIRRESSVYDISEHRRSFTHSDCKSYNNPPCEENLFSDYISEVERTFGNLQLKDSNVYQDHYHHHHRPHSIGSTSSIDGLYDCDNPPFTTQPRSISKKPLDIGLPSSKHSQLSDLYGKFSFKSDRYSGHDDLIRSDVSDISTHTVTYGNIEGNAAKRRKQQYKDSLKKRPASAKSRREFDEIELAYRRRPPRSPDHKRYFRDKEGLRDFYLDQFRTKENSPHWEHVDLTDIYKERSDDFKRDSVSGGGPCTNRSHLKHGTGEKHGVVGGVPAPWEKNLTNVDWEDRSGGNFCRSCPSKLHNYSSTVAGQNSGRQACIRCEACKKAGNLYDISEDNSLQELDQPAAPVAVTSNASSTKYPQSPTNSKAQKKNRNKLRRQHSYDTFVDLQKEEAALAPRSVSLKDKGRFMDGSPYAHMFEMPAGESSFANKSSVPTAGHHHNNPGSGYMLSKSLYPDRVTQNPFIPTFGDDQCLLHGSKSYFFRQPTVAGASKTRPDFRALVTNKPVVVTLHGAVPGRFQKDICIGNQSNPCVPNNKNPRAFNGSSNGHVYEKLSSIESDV
- MEASUREMENT NOTES: Radioligand binding assay, [3H]ifenprodil displacement
QUANTITY: pKi
pKi is defined as minus the log10 of a concentration measured in mol/L.

Take a look at these entries with their results.
Q: Could you tell me which pKi is on file for `CN1CCc2c(c3ccccc3n2CCNC23CC4CC(C)(CC(C)(C4)C2)C3)C1.Cl.Cl` ?
Ans: 5.77

Q: Try `CN1CCc2c(c3cc(F)ccc3n2CCNC23CC4CC(CC(C4)C2)C3)C1.Cl.Cl` next.
Ans: 5.29

Q: Would you kindly repeat that for `Cc1ccc2c(c1)c1c(n2CCNC23CC4CC(CC(C4)C2)C3)CCN(C)C1.Cl.Cl` ?
Ans: 5.09

Q: Okay, and `Cc1ccc2c(c1)c1c(n2CCNC23CC4CC(C)(CC(C)(C4)C2)C3)CCN(C)C1.Cl.Cl` ?
Ans: 5.06

Now consider the entry below.
Q: Give its pKi value. Item: `CN1CCc2c(c3cc(F)ccc3n2CC(=O)NC23CC4CC(CC(C4)C2)C3)C1.Cl`
Ans: 4.13

###

- System: isolated rat liver mitochondria
- MEASUREMENT NOTES: Ca2+-induced mitochondrial swelling (MPT pore opening)
- Assay type: biochemical
- RECORDED CONDITIONS: 30 µM compound; 12.5 µM Ca2+; 10 mM glutamate, 2 mM malate, 10 mM succinate; percentage relative to the reference compound
QUANTITY: Rate of Ca2+-Induced Mitochondrial Swelling (dA620/dt) (%)
The answer is to be given in %; state only the numeric part.

# count of solved cases: 5
Q: # Rate of Ca2+-Induced Mitochondrial Swelling (dA620/dt) lookup, item `CN1CCc2c(c3ccccc3n2CCNC23CC4CC(C)(CC(C)(C4)C2)C3)C1.Cl.Cl`
Ans: 33

Q: What would you report for Cc1ccc2c(c1)c1c(n2CCc2ccc(C)nc2)CCN(C)C1 [dimebon, reference compound] ?
Ans: 36

Q: Now give it for `Cc1ccc2c(c1)c1c(n2CCNC23CC4CC(C)(CC(C)(C4)C2)C3)CCN(C)C1.Cl.Cl` too.
Ans: 39

Q: Here is the next molecule: `CN1CCc2c(c3ccccc3n2CCNC23CC4CC(CC(C4)C2)C3)C1.Cl.Cl`
Ans: 35

Q: Would you mind doing `Cc1ccc2c(c1)c1c(n2CC(=O)NC23CC4CC(C)(CC(C)(C4)C2)C3)CCN(C)C1.Cl` as well?
Ans: 87

Turning now to a further molecule:
Q: What Rate of Ca2+-Induced Mitochondrial Swelling (dA620/dt) value was documented for this molecule, `CN1CCc2c(c3cc(F)ccc3n2CCNC23CC4CC(CC(C4)C2)C3)C1.Cl.Cl` ?
Ans: 42

###

- System: isolated rat liver mitochondria
- MEASUREMENT NOTES: Ca2+-induced mitochondrial swelling (MPT pore opening)
- Assay type: biochemical
- RECORDED CONDITIONS: 30 µM compound; 12.5 µM Ca2+; 10 mM glutamate, 2 mM malate, 10 mM succinate; percentage relative to the reference compound
QUANTITY: Rate of Ca2+-Induced Mitochondrial Swelling (dA620/dt) (%)
The response must be a number in % with no trailing unit.

Q: Lab request: please report Rate of Ca2+-Induced Mitochondrial Swelling (dA620/dt) under test system isolated rat liver mitochondria for CC12CC3CC(C)(C1)CC(N)(C3)C2 [memantine, reference compound]
Ans: 70

Q: Same again, this time with `CN1CCc2c(c3cc(F)ccc3n2CCNC23CC4CC(C)(CC(C)(C4)C2)C3)C1.Cl.Cl`
Ans: 31

Q: Next entry: `Cc1ccc2c(c1)c1c(n2CC(=O)NC23CC4CC(CC(C4)C2)C3)CCN(C)C1.Cl`
Ans: 49

Q: Cool, now `CN1CCc2c(c3cc(F)ccc3n2CC(=O)NC23CC4CC(CC(C4)C2)C3)C1.Cl`
Ans: 61

Q: Would you kindly repeat that for `CN1CCc2c(c3ccccc3n2CC(=O)NC23CC4CC(C)(CC(C)(C4)C2)C3)C1` ?
Ans: 42

Q: Another: `Cc1ccc2c(c1)c1c(n2CCNC23CC4CC(CC(C4)C2)C3)CCN(C)C1.Cl.Cl`
Ans: 42

Q: Proceed to `CN1CCc2c(c3cc(F)ccc3n2CC(=O)NC23CC4CC(C)(CC(C)(C4)C2)C3)C1.Cl`
Ans: 63

Others:
Q: Short answer please: Rate of Ca2+-Induced Mitochondrial Swelling (dA620/dt), isolated rat liver mitochondria, entry `CN1CCc2c(c3ccccc3n2CC(=O)NC23CC4CC(CC(C4)C2)C3)C1.Cl`
Ans: 45

###

- Test system: tubulin and microtubule-associated proteins (Tb+MAP)
- MEASUREMENT NOTES: GTP-dependent Tb+MAP polymerization
- Type: biochemical, mouse
- RECORDED CONDITIONS: 100 µM compound; 0.1 mM GTP, 37 °C
Here the recorded Rate of Tb+MAP Polymerization (dA355/dt) is given for each entry.
The reply should contain only the number, in %.

// solved cases for Rate of Tb+MAP Polymerization (dA355/dt) follow
Q: Look up Rate of Tb+MAP Polymerization (dA355/dt) for this molecule: CN1CCc2c(c3ccccc3n2CCNC23CC4CC(CC(C4)C2)C3)C1.Cl.Cl [Compound 4d]
Ans: 162

Q: Please give the result for CN1CCc2c(c3cc(F)ccc3n2CC(=O)NC23CC4CC(C)(CC(C)(C4)C2)C3)C1.Cl [Compound 8c] too.
Ans: 359

Q: Note, next up: CC12CC3CC(C)(C1)CC(N)(C3)C2 [memantine, reference compound]
Ans: 89

New cases:
Q: Can you share its Rate of Tb+MAP Polymerization (dA355/dt)? I mean this molecule: Cc1ccc2c(c1)c1c(n2CCc2ccc(C)nc2)CCN(C)C1 [dimebon, reference compound]
Ans: 162

Q: Queued: CN1CCc2c(c3ccccc3n2CC(=O)NC23CC4CC(CC(C4)C2)C3)C1.Cl [Compound 8d]
Ans: 128

Q: Now consider Cc1ccc2c(c1)c1c(n2CC(=O)NC23CC4CC(C)(CC(C)(C4)C2)C3)CCN(C)C1.Cl [Compound 8b] and answer again.
Ans: 314

###

- SYSTEM UNDER TEST: equine serum BChE (Equus caballus)
- Construct: equine serum BChE
- MEASUREMENT NOTES: biochemical
- RECORDED CONDITIONS: 5 min incubation; mean ± SEM, n = 3
Form field: pIC50 (one value per entry).
Value format note: pIC50 is -log10 of concentration (mol/L); just state the number.

Q: Lab request: please report pIC50 under test system equine serum BChE (Equus caballus) for `CN1CCc2c(c3ccccc3n2CC(=O)NC23CC4CC(CC(C4)C2)C3)C1.Cl`
Ans: 4.58

Q: Item: `CN1CCc2c(c3cc(F)ccc3n2CCNC23CC4CC(CC(C4)C2)C3)C1.Cl.Cl`
Ans: 5.60

Q: Same lookup for `CN1CCc2c(c3ccccc3n2CCNC23CC4CC(C)(CC(C)(C4)C2)C3)C1.Cl.Cl` , please.
Ans: 6.18

Here's the next entry for you.
Q: What is its pIC50 for equine serum BChE (Equus caballus)? Entry: `CN1CCc2c(c3ccccc3n2CCNC23CC4CC(CC(C4)C2)C3)C1.Cl.Cl`
Ans: 5.61
